- ASSAYED TARGET: Cannabinoid receptor 2 (Homo sapiens)
- Sequence (P34972 whole entry): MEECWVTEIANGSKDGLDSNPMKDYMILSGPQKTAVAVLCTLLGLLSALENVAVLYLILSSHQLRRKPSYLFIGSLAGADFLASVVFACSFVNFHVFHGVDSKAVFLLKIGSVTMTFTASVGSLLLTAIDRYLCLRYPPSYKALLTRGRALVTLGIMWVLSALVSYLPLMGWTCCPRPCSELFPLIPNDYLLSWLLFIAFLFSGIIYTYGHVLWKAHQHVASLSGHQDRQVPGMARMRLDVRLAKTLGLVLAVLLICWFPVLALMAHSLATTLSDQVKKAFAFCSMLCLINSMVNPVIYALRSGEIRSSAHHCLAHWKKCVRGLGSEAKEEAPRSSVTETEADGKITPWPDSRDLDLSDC
- ASSAY PROTOCOL: Partial agonist activity at wild type CB2 receptor (unknown origin) stably expressed in HEK293T assessed as decrease in forskolin induced cAMP level preincubated for 15 mins followed by forskolin addition incubated for 15 mins by HTRF assay
- Type: functional, cell-based
RECORDED METRIC: EC50 (nM)
Answers are plain numbers, in nM.

Please indicate recorded EC50 of "CCCC(C)(C)c1cc(O)c2c(c1)OC(C)(C)[C@@H]1CC=C(C)C[C@@H]21" measured with Cannabinoid receptor 2 (Homo sapiens). 31.6

Reference source: ChEMBL document CHEMBL5096191
